- tested-target: HLA-A*0202 (human)
- assay-overview: competition with 125I-labeled probe peptide for purified HLA, gel filtration
pIC50: −log10 of the molar value.
measurement-name: pIC50

[[record]]
binder = "ATFDIESKV (modifications not checked) [Peptide 1418.30 … (PSM.711.T2)]"
reported = 7.57

[[record]]
binder = "VLAGGFFLV (modifications not checked) [Peptide 1389.20 … (PSM.27.V9)]"
reported = 9.40

[[record]]
binder = "MMNDQLMFL (modifications not checked) [Peptide 1126.01 … (PSM.663)]"
reported = 9.10

[[record]]
binder = "LMYSLVHNL (modifications not checked) [Peptide 1126.14 … (PSM.469)]"
reported = 9.40


Each recorded value in this set is attributed to patent US20070020327A1.
